- Test system: MCF7
- Protocol Details: Growth inhibition of human MCF7 cells after 48 hrs in presence of fetal calf serum
- Format: functional, cell-based
- Condition Info: MCF7, 48 h
Reported Property: IC50 (nM)
Supply the numeric figure in nM, leaving out any unit text.

Write IC50 of COC(=O)C1=Cc2cc(O)c(O)cc2[C@@H](c2ccc(O)c(O)c2)[C@@H]1C(=O)OC ; system used: MCF7
1000
